Parameter EC50: see the listing below.
Molecular target: TBK1 (Homo sapiens, UniProt Q9UHD2)
Construct: host or cells: RA1-ISRE beta-lactamase reporter cells
Sequence (Q9UHD2 1-729): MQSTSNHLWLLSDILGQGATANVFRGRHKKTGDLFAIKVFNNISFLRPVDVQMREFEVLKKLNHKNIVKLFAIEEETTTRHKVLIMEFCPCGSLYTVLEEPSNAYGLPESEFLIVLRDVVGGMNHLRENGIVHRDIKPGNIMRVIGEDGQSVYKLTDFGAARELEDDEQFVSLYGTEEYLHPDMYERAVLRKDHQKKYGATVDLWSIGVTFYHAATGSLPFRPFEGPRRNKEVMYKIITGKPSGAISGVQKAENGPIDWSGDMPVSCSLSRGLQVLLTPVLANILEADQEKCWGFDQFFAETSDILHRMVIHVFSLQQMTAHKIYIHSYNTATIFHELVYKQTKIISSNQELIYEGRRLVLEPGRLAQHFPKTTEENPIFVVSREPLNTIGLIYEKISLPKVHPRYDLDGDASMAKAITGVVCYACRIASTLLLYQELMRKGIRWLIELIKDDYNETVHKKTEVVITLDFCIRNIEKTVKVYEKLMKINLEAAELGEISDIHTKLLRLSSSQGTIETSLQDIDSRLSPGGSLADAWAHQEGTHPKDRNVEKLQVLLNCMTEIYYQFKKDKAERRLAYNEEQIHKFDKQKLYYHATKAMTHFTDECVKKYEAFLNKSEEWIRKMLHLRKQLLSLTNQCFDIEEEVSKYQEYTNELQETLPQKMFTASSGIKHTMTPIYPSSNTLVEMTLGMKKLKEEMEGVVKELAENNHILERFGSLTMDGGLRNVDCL
Experiment: Inhibition of TBK1 in Cells (TLR3 driven ISRE β-lactamase reporter assay)
Assay type: cell-based
Settings: poly IC-LMW stimulation 16 hrs; -log(EC50), EC50 molar; read-out: Inhibition of TBK1 in cells pEC50 (EC) (converted)
Entry rule: numbers only, all in nM.

Reference set, count: 8
COCCC(=O)Nc1cn2cc(-c3csc(C(=O)NCC(F)(F)F)c3)ccc2n1 [Example 15]    933
O=C(NC1CCCOC1)c1nc(-c2ccc3nc(NC(=O)C4CC4)cn3c2)cs1 (stereo in doubt) [Example 88]    1550
CC(F)(F)CNC(=O)c1cc(-c2ccc3nc(NC(=O)C4CC4)cn3c2)cs1 [Example 3]    166
O=C(NC1COCC1O)c1cc(-c2ccc3nc(NC(=O)C4CC4)cn3c2)cs1 (stereo not shown) [Example 84]    2820
O=C(NCCC(F)(F)F)c1nc(-c2ccc3nc(NC(=O)C4CC4)cn3c2)cs1 [Example 92]    1120
COCC(=O)Nc1cn2cc(-c3csc(C(=O)NCC(F)(F)F)c3)ccc2n1 [Example 14]    1740
O=C(Nc1cn2cc(-c3csc(C(=O)N4CC(CO)C4)n3)ccc2n1)C1CC1 [Example 124]    2140
O=C(Nc1cn2cc(-c3csc(C(=O)N4CCC(F)(F)C4)c3)ccc2n1)C1CC1 [Example 74]    1350

Data request: Requested field: EC50. Item: O=C(Nc1cn2cc(-c3csc(C(=O)N(CCCO)CC(F)(F)F)c3)ccc2n1)C1CC1 [Example 119]
Data returned: 331

Data request: Requested field: EC50. Item: O=C(Nc1cn2cc(-c3cc(C(=O)N4CCC(F)CC4)[nH]n3)ccc2n1)C1CC1 [Example 105]
Data returned: 5370

Data request: Requested field: EC50. Item: COC1CCN(C(=O)c2nc(-c3ccc4nc(NC(=O)C5CC5)cn4c3)cs2)C1 (stereo not shown) [Example 97]
Data returned: 1550

Data request: Requested field: EC50. Item: O=C(NCC(F)(F)F)c1nc(-c2ccc3nc(NC(=O)C4CC4)cn3c2)cs1 [Example 4]
Data returned: 617

Data request: Requested field: EC50. Item: O=C(N[C@H]1CCCOC1)c1cc(-c2ccc3nc(NC(=O)C4CC4)cn3c2)cs1 [Example 68]
Data returned: 1020

Data request: Requested field: EC50. Item: COCCNC(=O)c1cc(-c2ccc3nc(NC(=O)C4CC4)cn3c2)cs1 [Example 73]
Data returned: 1660

Data request: Requested field: EC50. Item: CC(=O)N1CCC(NC(=O)c2cc(-c3ccc4nc(NC(=O)C5CC5)cn4c3)cs2)C1 (stereo not shown) [Example 79]
Data returned: 22900

Data request: Requested field: EC50. Item: O=C(Nc1cn2cc(-c3csc(C(=O)N4CC(F)(F)C4)c3)ccc2n1)C1CC1 [Example 77]
Data returned: 1660

Data request: Requested field: EC50. Item: O=C(Nc1cn2cc(-n3ccc(C(=O)N(CCO)CC(F)(F)F)n3)ncc2n1)C1CC1 [Example 127]
Data returned: 209

Data request: Requested field: EC50. Item: O=C(NCC(F)(F)F)c1cc(-c2ccc3nc(NC(=O)C4CC4)cn3c2)sn1 [Example 26]
Data returned: 759
